tested.on: IKKε (Homo sapiens)
Construct: purchased Invitrogen PR8031B
Sequence (Q14164 whole entry): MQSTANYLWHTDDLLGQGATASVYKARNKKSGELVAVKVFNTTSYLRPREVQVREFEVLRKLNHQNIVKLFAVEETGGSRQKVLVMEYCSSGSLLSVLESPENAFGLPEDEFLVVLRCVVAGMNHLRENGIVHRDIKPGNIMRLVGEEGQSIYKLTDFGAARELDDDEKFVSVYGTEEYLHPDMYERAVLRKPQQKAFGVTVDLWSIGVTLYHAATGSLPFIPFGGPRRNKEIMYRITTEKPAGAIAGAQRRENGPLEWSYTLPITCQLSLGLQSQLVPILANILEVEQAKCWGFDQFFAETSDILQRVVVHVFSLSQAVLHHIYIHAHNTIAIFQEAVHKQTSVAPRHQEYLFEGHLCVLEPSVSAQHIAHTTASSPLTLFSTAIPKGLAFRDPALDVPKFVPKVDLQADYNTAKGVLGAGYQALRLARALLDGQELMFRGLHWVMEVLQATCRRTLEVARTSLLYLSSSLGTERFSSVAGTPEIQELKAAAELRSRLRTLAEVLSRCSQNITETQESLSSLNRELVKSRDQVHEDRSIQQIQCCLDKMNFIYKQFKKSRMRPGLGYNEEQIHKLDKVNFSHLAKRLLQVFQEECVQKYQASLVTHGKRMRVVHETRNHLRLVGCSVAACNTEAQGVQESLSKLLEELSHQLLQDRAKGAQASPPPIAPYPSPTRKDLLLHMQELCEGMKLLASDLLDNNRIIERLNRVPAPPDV
test.method.notes: IKKε inhibition, ADP-Glo Kinase Assay
Assay type: biochemical
applied.conditions: luminometer
Protocol: Inhibition activities on TNIK, IKKε and TBK1 were evaluated using the compounds of Examples 1 to 254. The inhibition activities on TNIK, IKKε and TBK1 were measured by a luminometer, TNIK/IKKε/TBK1 Kinase Enzyme System (Promega, Ca# V4158; Invitrogen, PR8031B, Promega, Ca# V3991) and ADP-Glo Kinase Assay using ADP-Glo™ Kinase Analysis Kit (Promega, Ca# V9101) and a kinase reaction buffer [40 mM Tris(pH 7.5), 20 mM MgCl2, 0.1 mg/mL BSA] in accordance with the manufacturer's protocol.
IC50 under 0.09 µM gets true, anything at or over 0.09 µM gets false.

Consider the worked cases shown below.
{"molecule": "CCCC(NC(=O)c1ccc2[nH]nc(NC(=O)c3ccc(N4CCN(C)CC4)cc3)c2c1)c1cccs1 (stereo not drawn)", "category.label": "false"}
{"molecule": "CN1CCN(c2ccc(C(=O)Nc3n[nH]c4ccc(C(=O)NCc5ncon5)cc34)cc2)CC1 [Example 118, 2,2,2-trifluoroacetate]", "category.label": "false"}
{"molecule": "CC(C)(NC(=O)c1ccc2[nH]nc(NC(=O)c3ccc(F)cc3)c2c1)c1ccccc1", "category.label": "false"}
{"molecule": "CC(C)CCNC(=O)c1ccc2[nH]nc(NC(=O)c3ccc(F)cc3)c2c1", "category.label": "false"}
{"molecule": "CC(NC(=O)c1ccc2[nH]nc(NC(=O)c3ccc(N4CCNCC4)cc3)c2c1)c1ccccc1 (stereo not drawn) [Example 181, 2,2,2-trifluoroacetate]", "category.label": "true"}

## Task Identify whether the molecule CC(NC(=O)c1ccc2[nH]nc(NC(=O)c3ccc(N4CCN[C@H](C)C4)cc3)c2c1)c1ccccc1 (stereo partly drawn) [Example 185, 2,2,2-trifluoroacetate] records IC50 below 0.09 µM.
## Result true

## Task Does the reported IC50 of the following molecule sit strictly below 0.09 µM? `C[C@@H]1CN(c2ccc(C(=O)Nc3n[nH]c4ccc(C(=O)NC5(c6ccccc6)CC5)cc34)cc2)CCN1`
## Result true

---

tested.on: IKKε (Homo sapiens)
Construct: purchased Invitrogen PR8031B
test.method.notes: IKKε inhibition, ADP-Glo Kinase Assay
Assay type: biochemical
applied.conditions: luminometer
Recorded IC50 values for a group of compounds are listed next.
API: value field is a number in µM; no unit string.

Some entries whose results are on file:
{"compound": "C[C@H]1CN(c2ccc(C(=O)Nc3n[nH]c4ccc(C(=O)NC(C)(C)c5cccs5)cc34)cc2)CCN1", "tested.on": "IKKε (Homo sapiens)", "IC50 / µM": 0.032}
{"compound": "O=C(NCc1ccccn1)c1ccc2[nH]nc(NC(=O)c3ccc(N4CCOCC4)cc3)c2c1", "tested.on": "IKKε (Homo sapiens)", "IC50 / µM": 0.45}
{"compound": "C[C@@H](NC(=O)c1ccc2[nH]nc(NC(=O)c3ccc(N4CCN(C)CC4)cc3)c2c1)c1ccccc1", "tested.on": "IKKε (Homo sapiens)", "IC50 / µM": 0.0076}
{"compound": "CN1CCN(c2ccc(C(=O)Nc3n[nH]c4ccc(C(=O)NCc5ccon5)cc34)cc2)CC1", "tested.on": "IKKε (Homo sapiens)", "IC50 / µM": 0.26}
{"compound": "Cc1ccc(CNC(=O)c2ccc3[nH]nc(NC(=O)c4ccc(N5CCN(C)CC5)cc4)c3c2)s1", "tested.on": "IKKε (Homo sapiens)", "IC50 / µM": 0.23}
{"compound": "CC(C)CC(NC(=O)c1ccc2[nH]nc(NC(=O)c3ccc(F)cc3)c2c1)c1cccs1 (stereo not shown)", "tested.on": "IKKε (Homo sapiens)", "IC50 / µM": 6.36}

response.value for CCC(NC(=O)c1ccc2[nH]nc(NC(=O)c3ccc(N4CCN[C@@H](C)C4)cc3)c2c1)c1cccs1 (stereo partly shown) [Example 97, 2,2,2-trifluoroacetate] (field: IC50) = 0.016

---

tested.on: TBK1 (Homo sapiens, UniProt Q9UHD2)
Construct: purchased Promega V3991
Sequence (Q9UHD2 1-729): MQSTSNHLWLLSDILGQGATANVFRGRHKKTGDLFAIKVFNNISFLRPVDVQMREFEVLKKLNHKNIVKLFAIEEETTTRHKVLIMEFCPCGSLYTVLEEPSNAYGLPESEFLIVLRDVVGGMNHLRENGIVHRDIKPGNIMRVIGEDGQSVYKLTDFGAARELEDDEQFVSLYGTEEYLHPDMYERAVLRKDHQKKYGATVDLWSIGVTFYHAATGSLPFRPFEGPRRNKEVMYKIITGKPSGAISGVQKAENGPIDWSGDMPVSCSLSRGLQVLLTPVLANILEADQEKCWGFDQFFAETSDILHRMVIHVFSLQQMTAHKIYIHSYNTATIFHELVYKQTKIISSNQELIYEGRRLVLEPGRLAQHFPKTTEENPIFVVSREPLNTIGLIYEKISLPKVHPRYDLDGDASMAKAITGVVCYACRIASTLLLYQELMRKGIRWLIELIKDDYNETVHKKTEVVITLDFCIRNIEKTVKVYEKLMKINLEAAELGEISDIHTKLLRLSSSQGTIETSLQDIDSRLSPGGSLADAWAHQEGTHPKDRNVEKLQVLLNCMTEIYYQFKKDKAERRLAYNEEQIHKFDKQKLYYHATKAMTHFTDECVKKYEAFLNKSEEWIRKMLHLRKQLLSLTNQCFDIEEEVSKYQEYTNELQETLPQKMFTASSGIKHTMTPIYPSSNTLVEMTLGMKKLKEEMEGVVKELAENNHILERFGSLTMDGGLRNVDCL
test.method.notes: TBK1 inhibition, ADP-Glo Kinase Assay
Type: biochemical
applied.conditions: luminometer
endpoint.label: IC50 (µM)
Report as a plain number; the unit µM is understood.

Lab note: measured IC50 of CC1CN(c2ccc(C(=O)Nc3n[nH]c4ccc(C(=O)NC(C)c5ccccc5)cc34)cc2)CC(C)N1 (stereo not drawn) was 0.003

Just so you know, measured IC50 for `O=C(NCc1cccs1)c1ccc2[nH]nc(NC(=O)c3ccc(C4=CCNCC4)cc3)c2c1` came out at 0.0097

Reported IC50 for CCC(NC(=O)c1ccc2[nH]nc(NC(=O)c3ccc(N4CCN(C)CC4)cc3)c2c1)c1ccccc1 (stereo not drawn) was 0.0035

The measured IC50 associated with `Cc1cnc(-c2cc3[nH]nc(NC(=O)c4ccc(N(C)C)cc4)c3s2)o1` reads 0.094

Consider `CC(C)(NC(=O)c1ccc2[nH]nc(NC(=O)c3ccc(N4CCOCC4)cc3)c2c1)c1cccs1` . Its measured IC50 is 0.012

Reported IC50 of CC(NC(=O)c1ccc2[nH]nc(NC(=O)c3ccc(N4CCOCC4)cc3)c2c1)c1ccncc1 (stereo not drawn) : 0.023

For reference, reported IC50 for CC(NC(=O)c1ccc2[nH]nc(NC(=O)c3ccc(N4CCOCC4)cc3)c2c1)c1ccccc1 (stereo not drawn) stands at 0.0023

---

Below, each of the compounds is paired with its reported IC50 value.
tested.on: TBK1 (Homo sapiens)
Construct: purchased Promega V3991
test.method.notes: TBK1 inhibition, ADP-Glo Kinase Assay
Assay type: biochemical
applied.conditions: luminometer
Response body: numeric value in µM, unit text excluded.

Past entries and their recorded results:
{"compound": "O=C(NCc1nccs1)c1ccc2[nH]nc(NC(=O)c3ccc(N4CCOCC4)cc3)c2c1 [Example 104, 2,2,2-trifluoroacetate]", "measured.result": 0.026}
{"compound": "CCC(NC(=O)c1ccc2[nH]nc(NC(=O)c3ccc(N4CCNCC4)cc3)c2c1)c1cccs1 (stereo not shown)", "measured.result": 0.0058}
{"compound": "CN1CCC(Nc2ccc(C(=O)Nc3n[nH]c4ccc(C(=O)NCc5cccs5)cc34)cc2)CC1", "measured.result": 0.0044}
{"compound": "CC(=O)Nc1ccc(C(=O)Nc2n[nH]c3ccc(C(=O)NCc4cccs4)cc23)cc1", "measured.result": 0.0013}
{"compound": "CN1CCN(c2ccc(C(=O)Nc3n[nH]c4ccc(C(=O)NCc5ccc(C(F)(F)F)nc5)cc34)cc2)CC1", "measured.result": 0.35}
{"compound": "Cc1cnc(-c2cc3[nH]nc(NC(=O)c4ccc(NCCO)cc4)c3s2)o1", "measured.result": 0.12}
{"compound": "CC(NC(=O)c1ccc2[nH]nc(NC(=O)c3ccc(N4CCN(C)CC4)cc3)c2c1)c1cccnc1 (stereo not shown)", "measured.result": 0.021}
{"compound": "O=C(NCc1cccs1)c1ccc2[nH]nc(NC(=O)c3ccc(NCCC4=CCCCC4)cc3)c2c1", "measured.result": 1.1}
{"compound": "CCC[C@@H](NC(=O)c1ccc2[nH]nc(NC(=O)c3ccc(N4CCN(C)CC4)cc3)c2c1)c1ccccc1", "measured.result": 0.0075}
{"compound": "CC(C)(C)OC(=O)N1CC=C(c2ccc(C(=O)Nc3n[nH]c4ccc(C(=O)NCc5cccs5)cc34)cc2)CC1", "measured.result": 0.15}

IC50 value, target or system TBK1 (Homo sapiens), for `O=C(NCc1cccs1)c1ccc2[nH]nc(NC(=O)c3cccc([N+](=O)[O-])c3)c2c1` : 0.077

Value (IC50, TBK1 (Homo sapiens)) for record CC(NC(=O)c1ccc2[nH]nc(NC(=O)c3ccc(F)cc3)c2c1)c1cccs1 (stereo not shown) = 0.042
